The following molecules are listed with their measured AC50 values.
# ASSAYED TARGET: Epidermal growth factor receptor (Homo sapiens); also: assay procedure not described here
# Sequence (P00533 whole entry): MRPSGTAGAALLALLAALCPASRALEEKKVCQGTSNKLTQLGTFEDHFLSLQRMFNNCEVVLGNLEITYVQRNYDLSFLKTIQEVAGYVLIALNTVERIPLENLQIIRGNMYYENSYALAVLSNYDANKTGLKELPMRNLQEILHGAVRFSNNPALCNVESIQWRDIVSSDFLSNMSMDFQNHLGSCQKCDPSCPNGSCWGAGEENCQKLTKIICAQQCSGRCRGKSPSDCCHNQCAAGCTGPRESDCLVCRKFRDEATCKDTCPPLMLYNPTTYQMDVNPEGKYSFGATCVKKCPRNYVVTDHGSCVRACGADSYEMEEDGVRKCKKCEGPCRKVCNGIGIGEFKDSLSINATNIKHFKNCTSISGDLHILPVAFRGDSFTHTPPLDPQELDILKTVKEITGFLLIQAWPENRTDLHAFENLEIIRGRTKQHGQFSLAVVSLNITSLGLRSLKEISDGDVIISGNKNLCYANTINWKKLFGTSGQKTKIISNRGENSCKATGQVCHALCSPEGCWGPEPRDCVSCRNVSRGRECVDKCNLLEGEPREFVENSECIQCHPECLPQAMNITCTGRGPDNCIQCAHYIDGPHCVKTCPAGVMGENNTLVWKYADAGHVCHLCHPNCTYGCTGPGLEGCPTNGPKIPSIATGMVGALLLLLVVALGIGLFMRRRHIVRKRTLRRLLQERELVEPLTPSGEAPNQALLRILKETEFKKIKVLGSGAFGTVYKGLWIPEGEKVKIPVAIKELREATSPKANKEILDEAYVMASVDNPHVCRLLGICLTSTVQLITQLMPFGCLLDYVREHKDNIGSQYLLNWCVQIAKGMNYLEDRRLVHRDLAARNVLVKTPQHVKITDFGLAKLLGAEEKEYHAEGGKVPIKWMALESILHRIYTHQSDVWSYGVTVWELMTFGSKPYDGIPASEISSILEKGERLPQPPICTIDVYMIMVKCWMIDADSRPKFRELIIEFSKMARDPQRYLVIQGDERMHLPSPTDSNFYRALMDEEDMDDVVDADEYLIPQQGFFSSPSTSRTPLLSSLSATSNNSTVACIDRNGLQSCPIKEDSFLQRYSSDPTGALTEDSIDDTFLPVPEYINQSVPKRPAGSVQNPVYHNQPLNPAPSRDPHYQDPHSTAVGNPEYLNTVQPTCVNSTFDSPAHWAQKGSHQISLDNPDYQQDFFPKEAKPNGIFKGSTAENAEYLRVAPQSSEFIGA
# Assay type: functional

Assay Epidermal growth factor receptor (Homo sapiens), sample CC(C)c1cccc(C(C)C)c1O , AC50 read: > 30 µM

Assay Epidermal growth factor receptor (Homo sapiens), sample S=P(N1CC1)(N1CC1)N1CC1 , AC50 read: > 30 µM

Assay Epidermal growth factor receptor (Homo sapiens), sample Clc1ccc(Cn2c(CN3CCCC3)nc3ccccc32)cc1 , AC50 read: > 30 µM

Assay Epidermal growth factor receptor (Homo sapiens), sample CC(C)(O/N=C(\C(=O)N[C@@H]1C(=O)N2C(C(=O)[O-])=C(C[n+]3ccccc3)CS[C@H]12)c1csc(N)n1)C(=O)O , AC50 read: > 3 µM

Assay Epidermal growth factor receptor (Homo sapiens), sample CCOc1cc([C@@H](CS(C)(=O)=O)N2C(=O)c3cccc(NC(C)=O)c3C2=O)ccc1OC , AC50 read: > 30 µM

Assay Epidermal growth factor receptor (Homo sapiens), sample Cc1nnc(SCC2=C(C(=O)O)N3C(=O)[C@@H](NC(=O)Cn4cnnn4)[C@H]3SC2)s1 , AC50 read: > 300 µM

Assay Epidermal growth factor receptor (Homo sapiens), sample Cc1onc(-c2c(F)cccc2Cl)c1C(=O)N[C@@H]1C(=O)N2[C@@H]1SC(C)(C)[C@@H]2C(=O)O , AC50 read: > 30 µM
